System: panel of 24 kinases
Experiment Notes: Kinase selectivity testing (percentage inhibition of 24 kinases at 1 μM)
Assay type: biochemical
Experimental Conditions: proquinase, PAK1, 1 uM
Give measured % inhibiton at 1 uM PAK1 for each item. Keep answers brief.
One number for each entry, in %.

[[record]]
compound = "FC(F)(F)Oc1cccc(-n2nnc3ccc(NC4CC5(CCNCC5)C4)nc32)c1"
assay_system = "panel of 24 kinases"
data_value = 11


Please state, for each entry, its recorded % inhibiton at 1 uM PAK1.
1. FC(F)(F)Oc1cccc(-n2nnc3ccc(N4CCCC5(CCCN5)CC4)nc32)c1 (stereo not drawn)
2. FC(F)(F)Oc1cccc(-n2nnc3ccc(NCC4CC5(CCNCC5)C4)nc32)c1
3. COc1cc(NCC2CCNCC2)nc2c1nnn2-c1cccc(OC(F)(F)F)c1
4. COc1cc(NCC2CCNCC2)nc2c1nnn2-c1cccc(N(C)C)c1
5. FC(F)(F)c1cccc(-n2nnc3cc(Cl)c(NCC4CCNCC4)nc32)c1

Ans.
1. 0
2. 3
3. 8
4. 10
5. 11
